system: DU-145; assay: Cytotoxicity against human DU145 cells at 100 uM in presence of SSAO inhibitor aminoguanidine after 3 days; assay type: cell-based; conditions: du-145, 72 h

compound	target or test system	Activity
CC(CN)CNCCCCNCC(C)CN (centres undefined)	DU-145	Non-Toxic
CC(N)CCNCCCCNCCC(C)N (centres undefined)	DU-145	Non-Toxic
NCCCNCCCCNCCCN	DU-145	Toxic
CC(CCN)NCCCCNC(C)CCN (centres undefined)	DU-145	Non-Toxic
